# credit: patent US9873702B2

target: serotonin transporter (SERT) (Rattus norvegicus); construct: Freshly removed whole brain minus cerebellum and caudate was homogenized; from tissue; host or cells: rat whole brain minus cerebellum and caudate, synaptosomes; assay: Serotonin reuptake ([^3H]serotonin uptake) inhibition in rat brain synaptosomes; assay type: biochemical; details: mean ± S.D., n = 3; read-out: SERT Uptake IC50
Sequence (P31652 whole entry): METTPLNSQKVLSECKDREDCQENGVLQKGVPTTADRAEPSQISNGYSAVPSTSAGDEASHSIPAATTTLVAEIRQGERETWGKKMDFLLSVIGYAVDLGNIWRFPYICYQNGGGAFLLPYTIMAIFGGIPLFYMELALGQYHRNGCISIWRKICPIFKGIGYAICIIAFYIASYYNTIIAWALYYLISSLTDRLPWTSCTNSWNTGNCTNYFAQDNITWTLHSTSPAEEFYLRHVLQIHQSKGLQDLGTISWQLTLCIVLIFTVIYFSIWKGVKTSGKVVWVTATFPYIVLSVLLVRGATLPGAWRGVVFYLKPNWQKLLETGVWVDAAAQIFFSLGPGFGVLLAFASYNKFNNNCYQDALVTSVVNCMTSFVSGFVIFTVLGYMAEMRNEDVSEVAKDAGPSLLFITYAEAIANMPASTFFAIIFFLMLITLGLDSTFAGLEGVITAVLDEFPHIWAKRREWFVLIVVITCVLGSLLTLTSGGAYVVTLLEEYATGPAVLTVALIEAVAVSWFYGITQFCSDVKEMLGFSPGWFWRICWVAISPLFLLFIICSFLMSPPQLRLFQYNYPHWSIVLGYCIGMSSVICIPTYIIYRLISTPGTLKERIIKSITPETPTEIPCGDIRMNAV
The entries below come with measured IC50 values attached.
// return numeric value only (unit: nM, not printed)

| molecule | measurement |
| --- | --- |
| CSc1ncc(-c2nc(NCC(c3ccccc3)c3ccccc3)c3ccccc3n2)cn1 | 56 |
| c1ccc(C(CNc2nc(-c3ccc4nccn4c3)nc3ccccc23)c2cccnc2)cc1 (centres unmarked) | 35 |
| OC(CNc1nc(-c2ccc3[nH]ccc3c2)nc2ccccc12)(c1ccccc1)c1ccccc1 | 35 |

Ask: # return IC50 of CS(=O)(=O)Nc1ccc(-c2nc(NCC(c3ccccc3)c3ccccc3)c3ccccc3n2)cc1 (system: serotonin transporter (SERT) (Rattus norvegicus))
Reply: 20

Ask: Fill in: IC50 on serotonin transporter (SERT) (Rattus norvegicus), entry c1ccc(C(CNc2nc(-c3ccc4ncnn4c3)nc3ccccc23)c2ccccc2)cc1
Reply: 13
